Test system: CEM cells HIV-1 protection, formazan growth assay
Experiment Summary: NCI AIDS Antiviral Assay
Condition Description: measured here: growth of uninfected CEM cells
Protocol: The ability of compounds to protect human CEM cells from HIV-1 infection is measured as a screen for new compounds capable of inhibiting the HIV virus. Five concentrations of drug were tested on uninfected and infected cells and cell growth was measured using a soluble formazan assay. […] Compounds that provided at least 50% protection were retested. Compounds that provided at least 50% protection on retest were listed as moderately active. […]
pIC50: −log10 of the molar value.
# reported pIC50; entries follow

Compound	pIC50
O=c1cc(-c2ccccc2)oc2cc(Oc3nnnn3-c3ccccc3)ccc12	4.37
N#Cc1cccc(C=NC23CC4CC(CC(C4)C2)C3)c1	4.13
CC(C)=CCC/C(C)=C/CC/C(C)=C/C1CCC(=O)C1(C)C (centres undefined)	4.38
CC(C)(C)OC(=O)N1CCCC1C(=O)NCCNc1ccc(NCCNC(=O)C2CCCN2C(=O)OC(C)(C)C)c2c1C(=O)c1ccccc1C2=O (centres undefined)	5.18
CNC(=S)N/N=C(\C(=N/NC(=S)NC)c1ccccn1)c1ccccn1	7.29
COC1/C=C/OC2(C)Oc3c(C)c(O)c4c(O)c(c(/C=N/N5C(C)CN(Cc6ccccc6C#N)CC5C)c(O)c4c3C2=O)NC(=O)/C(C)=C\C=C\C(C)C(O)C(C)C(O)C(C)C(OC(C)=O)C1C (centres undefined)	5.13
O=C(c1ccccc1)c1ccc(COc2ccc(C(c3c(O)c4ccccc4oc3=O)c3c(O)c4ccccc4oc3=O)cc2)cc1	4.45
O=[N+]([O-])c1ccc(N=Nc2ccc3c(c2)-c2ccccc2C3=P(c2ccccc2)(c2ccccc2)c2ccccc2)cc1	4.48
COC(=O)CC1(C(=O)OC)Nc2cc(Cl)c(Cl)cc2S(=O)(=O)N1O (centres undefined)	4.04
COc1ccc(NC(=S)N/N=C(\c2ccccc2)c2ccccn2)cc1	7.04

* * *

Test system: CEM cells HIV-1 protection, formazan growth assay
Experiment Summary: NCI AIDS Antiviral Assay
// reported EC50 per item

Compound	Tested Target	EC50
CC(C)(C)C1CCC(CC(=O)O)(CC(=O)Nc2nccs2)CC1 (configuration not stated)	CEM cells HIV-1 protection, formazan growth assay	> 200 µM
CSc1c(C#N)c(N)n(-c2ccc(Cl)cc2)c(=O)c1C#N	CEM cells HIV-1 protection, formazan growth assay	67.6 µM
COc1c(Br)c(=O)n(C)c(=O)n1C	CEM cells HIV-1 protection, formazan growth assay	> 200 µM
CCc1ccc(/C(C#N)=C/c2ccc(OC)cc2)cc1	CEM cells HIV-1 protection, formazan growth assay	> 200 µM
COCN(COC)c1nc(CCC(Br)(Br)Br)nc(N(COC)COC)n1	CEM cells HIV-1 protection, formazan growth assay	> 83.2 µM
COc1ccc(-n2c(SC(CN3CCOCC3)CN3CCCC3=O)nc3ccccc3c2=O)cc1 (configuration not stated)	CEM cells HIV-1 protection, formazan growth assay	> 200 µM
COc1ccc(CCNC(=O)Cc2cc(OC)c(OC)cc2Br)cc1OC	CEM cells HIV-1 protection, formazan growth assay	> 81.3 µM
CNC(=O)c1ccc(C(=O)NCCCCCN(O)C(=O)CCC(=O)NCCCCCN(O)C(=O)CCC(=O)NCCCCCN(O)C(C)=O)c(O)c1O	CEM cells HIV-1 protection, formazan growth assay	> 100 µM
COC(=O)C1[C@@H](C(=O)OC)C12C=Cc1ccccc1C=C2 (some centres not stated)	CEM cells HIV-1 protection, formazan growth assay	> 200 µM
NC(CS)=NC1CCCCC1	CEM cells HIV-1 protection, formazan growth assay	> 200 µM
Oc1ccc([C@H]2Oc3c(ccc(O)c3O)[C@@H](O)[C@H]2O)cc1O	CEM cells HIV-1 protection, formazan growth assay	> 200 µM
CC1=NN(C(=O)CC(=O)Nc2ccc(C)cc2)C(=O)C1N=Nc1ccc(C(=O)O)cc1 (configuration not stated)	CEM cells HIV-1 protection, formazan growth assay	> 200 µM
Cc1cc2c(c(C=Nc3ccc([N+](=O)[O-])cc3)c1)OC1(C=C2)Oc2ccccc2C(=O)N1C (configuration not stated)	CEM cells HIV-1 protection, formazan growth assay	> 200 µM
CCOc1nc2sc3c(c2c(=O)n1CCSSCCn1c(OCC)nc2sc4c(c2c1=O)CCCC4)CCCC3	CEM cells HIV-1 protection, formazan growth assay	> 100 µM
CCN(CC)C(=S)N=Nc1c(O)[nH]c2ccccc12	CEM cells HIV-1 protection, formazan growth assay	> 200 µM
CCOC(=O)/C(=C\c1ccc(N(CCC#N)CCC#N)cc1)NC(=O)c1cc([N+](=O)[O-])ccc1Cl	CEM cells HIV-1 protection, formazan growth assay	> 10.5 µM
NC(N)=N/N=C/c1ccc[nH]1	CEM cells HIV-1 protection, formazan growth assay	> 200 µM
O=c1ccc(-c2ccc(-n3ccnc3)cc2)nn1CCO	CEM cells HIV-1 protection, formazan growth assay	> 200 µM
CC(SSC(C)N1C(=O)c2ccccc2C1=O)N1C(=O)c2ccccc2C1=O (configuration not stated)	CEM cells HIV-1 protection, formazan growth assay	> 100 µM
N#Cc1c(-c2ccccc2)cn2c1[nH]c(=O)c1ccccc12	CEM cells HIV-1 protection, formazan growth assay	> 200 µM
C=C(C)[C@@H]1CC[C@@H](C)C[C@H]1OC(C)=O	CEM cells HIV-1 protection, formazan growth assay	> 200 µM
O=C(OCc1ccccc1)N1c2cc([N+](=O)[O-])ccc2C(=O)N2CCC[C@H]2C1O (some centres not stated)	CEM cells HIV-1 protection, formazan growth assay	> 200 µM
